Tested on: SUM149
Experiment: percent difference in area under dose-response curve of relative cell number, RPMI vs HPLM; higher = drug relatively more effective in HPLM than RPMI (negative = less effective in HPLM)
Conditions: treatment time: 72 h; dose range: 10-point, 1 nM to 20 µM; media compared: RPMI vs HPLM
property measured: percent difference in area under dose-response curve (%)

| compound | target or test system | unit of measurement | value observed |
| --- | --- | --- | --- |
| CN(C)/N=N/c1[nH]cnc1C(N)=O [Dacarbazine] | SUM149 | % | -9.4 |
| C[C@]1(O)C[C@@H](c2nc(-c3ccc4ccc(-c5ccccc5)nc4c3)c3c(N)nccn32)C1 [Linsitinib] | SUM149 | % | 1.93 |
| CC(=O)O[C@H]1C(=O)[C@@]2(C)[C@H]([C@H](OC(=O)c3ccccc3)[C@]3(O)C[C@H](OC(=O)[C@H](O)[C@@H](NC(=O)c4ccccc4)c4ccccc4)C(C)=C1C3(C)C)[C@]1(OC(C)=O)CO[C@@H]1C[C@@H]2O [Paclitaxel] | SUM149 | % | -45.1 |
| CC(C)(C)c1cc(C(=O)C(C#N)=NNc2cccc(Cl)c2)no1 | SUM149 | % | -6.64 |
| N[C@H](C(=O)O)[C@@H]1CC(Cl)=NO1 [Acivicin] | SUM149 | % | 9.22 |
| CN[C@H]1CN(c2ccc3c(=O)c(C(=O)O)cn(-c4nccs4)c3n2)C[C@@H]1OC [Voreloxin] | SUM149 | % | -18 |
| NC1(c2ccc(-c3nc4ccn5c(=O)[nH]nc5c4cc3-c3ccccc3)cc2)CCC1 | SUM149 | % | 0.884 |
| CC(=O)O[C@@]12CO[C@@H]1C[C@H](O)[C@@]1(C)C(=O)[C@H](O)C3=C(C)[C@@H](OC(=O)[C@H](O)[C@@H](NC(=O)OC(C)(C)C)c4ccccc4)C[C@@](O)([C@@H](OC(=O)c4ccccc4)[C@H]21)C3(C)C [Docetaxel] | SUM149 | % | -42.7 |
| O=C(Nc1cccc(C(F)(F)F)c1)Nc1cc(S(=O)(=O)NC2CC2)ccc1-c1ccsc1 | SUM149 | % | -8.01 |
| CN1CCN(c2ccc(OC(F)(F)F)c(Nc3ncc4c(n3)-c3c(c(C(N)=O)nn3CCO)CC4)c2)CC1 | SUM149 | % | -12.8 |
| Cc1cnc(Nc2ccc(OCCN3CCCC3)cc2)nc1Nc1cccc(S(=O)(=O)NC(C)(C)C)c1 | SUM149 | % | -10.7 |
| COCC[n+]1c2c(n(Cc3cnccn3)c1C)C(=O)c1ccccc1C2=O | SUM149 | % | 15.7 |
| CCC(C)SSc1ncc[nH]1 (stereo unspecified) | SUM149 | % | 3.05 |
| CC[C@@H]1C(=O)N(C)c2cnc(Nc3ccc(C(=O)N[C@H]4CC[C@H](N5CCN(CC6CC6)CC5)CC4)cc3OC)nc2N1C(C)C | SUM149 | % | -16.8 |
| CN1CC[C@H](c2c(O)cc(O)c3c(=O)cc(-c4ccccc4Cl)oc23)[C@H](O)C1 [Flavopiridol] | SUM149 | % | -2.56 |
| COC1=CC(c2cc3ccccc3[nH]2)=N/C1=C\c1[nH]c(C)cc1C [Obatoclax_mesylate] | SUM149 | % | -8.47 |

Reference source: the supplement of paper PMC11383364
